Origin of values: patent US20250074892A1

- MEASUREMENT_PROTOCOL: Mouse PK&BBB (pharmacokinetics and brain penetration)
- Assay type: in vivo, CD-1 mice
- STUDY_CONDITIONS: CD-1, mouse, whole blood, iv, 2 mg/kg, IV 2 mg/kg, 0 hr, read-out: Blood drug concentration
QUANTITY_NAME: concentration at 0 h (ng/mL)
Hi! Could you send only the number? It should be in ng/mL, unit omitted.

Data request: Dear colleague, I am looking for the recorded concentration at 0 h of the following compound: O=C(C1CCN(c2cc(-c3cc(OCCCO)ccc3F)ccn2)CC1)N1N=CC[C@H]1c1cc(F)cc(F)c1 (racemic)
Data returned: 0

---

- MEASUREMENT_PROTOCOL: Mouse PK&BBB (pharmacokinetics and brain penetration)
- Assay type: in vivo, CD-1 mice
- STUDY_CONDITIONS: CD-1, mouse, whole blood, po, 20 mg/kg, PO 20 mg/kg, 0.5 hr, read-out: Blood drug concentration
QUANTITY_NAME: concentration at 0.5 h
Please answer using a numeric value trailed by its unit.

Data request: Dear colleague, I am looking for the recorded concentration at 0.5 h of the following compound: O=C(C1CCN(c2cc(-c3cc(OCCCO)ccc3F)ccn2)CC1)N1N=CC[C@H]1c1cc(F)cc(F)c1 (racemic) [Example 40]
Data returned: 405 ng/mL

---

- MEASUREMENT_PROTOCOL: Mouse PK&BBB (pharmacokinetics and brain penetration)
- Type: in vivo, CD-1 mice
- STUDY_CONDITIONS: CD-1, whole blood, IV 2 mg/kg, read-out: Cl—obs
QUANTITY_NAME: clearance (mL/min/kg)
Hi! Could you send only the number? It should be in mL/min/kg, unit omitted.

Data request: Dear colleague, I am looking for the recorded clearance of the following molecule: O=C(C1CCN(c2cc(-c3cc(OCCCO)ccc3F)ccn2)CC1)N1N=CC[C@H]1c1cc(F)cc(F)c1 (racemic) [Example 40]
Data returned: 114

---

- MEASUREMENT_PROTOCOL: Beagle PK (pharmacokinetics)
- Format: in vivo, beagle dogs
- STUDY_CONDITIONS: whole blood; Beagle dog, PO 3 mg/kg, 2 hr; read-out: Blood drug concentration
QUANTITY_NAME: concentration at 2 h
Please answer using a numeric value trailed by its unit.

Data request: Dear colleague, I am looking for the recorded concentration at 2 h of the following compound: O=C(C1CCN(c2cc(-c3cc(OCCCO)ccc3F)ccn2)CC1)N1N=CCC1c1cc(F)cc(F)c1 (racemic)
Data returned: 932 ng/mL

Data request: Dear colleague, I am looking for the recorded concentration at 2 h of the following compound: CC(C)(O)COc1ccc(F)c(-c2ccnc(N3CCC(C(=O)N4N=CC[C@H]4c4cc(F)cc(F)c4)CC3)c2)c1 (racemic)
Data returned: 1320 ng/mL

---

- MEASUREMENT_PROTOCOL: Rat PK&BBB (pharmacokinetics and brain penetration)
- Assay type: in vivo, SD rats
- STUDY_CONDITIONS: SD, whole blood, PO 30 mg/kg
- Experimental: In this assay, the pharmacokinetic characteristics and ability to penetrate the blood-brain barrier of the compounds of the present application were assayed after administration of some of the compounds of the present application to SD rats, CD-1 mice or beagle dogs by single oral administration and intravenous injection. 1. […] Pharmacokinetic parameters were calculated using WinNonlin software. […]
QUANTITY_NAME: AUC(0-inf) (ng·h/mL)
Hi! Could you send only the number? It should be in ng·h/mL, unit omitted.

Study these solved cases before continuing.
Data request: Dear colleague, I am looking for the recorded AUC(0-inf) of the following compound: CC(C)(O)COc1ccc(F)c(-c2ccnc(N3CCC(C(=O)N4N=CC[C@H]4c4cc(F)cc(F)c4)CC3)c2)c1 (racemic)
Data returned: 26500

Data request: Dear colleague, I am looking for the recorded AUC(0-inf) of the following compound: O=C(C1CCN(c2cc(-c3cc(OCCCO)ccc3F)ccn2)CC1)N1N=CC[C@H]1c1cc(F)cc(F)c1 (racemic)
Data returned: 1970

Further cases:
Data request: Dear colleague, I am looking for the recorded AUC(0-inf) of the following compound: O=C(C1CCN(c2cc(-c3cc(OCCCO)ccc3F)ccn2)CC1)N1N=CCC1c1cc(F)cc(F)c1 (racemic)
Data returned: 967

---

- MEASUREMENT_PROTOCOL: Mouse PK&BBB (pharmacokinetics and brain penetration)
- Format: in vivo, CD-1 mice
- STUDY_CONDITIONS: CD-1, mouse, whole blood, po, 20 mg/kg, PO 20 mg/kg, 2 hr, read-out: Blood drug concentration
QUANTITY_NAME: concentration at 2 h (ng/mL)
Hi! Could you send only the number? It should be in ng/mL, unit omitted.

Data request: Dear colleague, I am looking for the recorded concentration at 2 h of the following molecule: O=C(C1CCN(c2cc(-c3cc(OCCCO)ccc3F)ccn2)CC1)N1N=CC[C@H]1c1cc(F)cc(F)c1 (racemic) [Example 40]
Data returned: 163

---

- MEASUREMENT_PROTOCOL: Beagle PK (pharmacokinetics)
- Format: in vivo, beagle dogs
- STUDY_CONDITIONS: whole blood; Beagle dog, IV 1 mg/kg, 24 hr; read-out: Blood drug concentration
QUANTITY_NAME: concentration at 24 hr (ng/mL)
Hi! Could you send only the number? It should be in ng/mL, unit omitted.

Data request: Dear colleague, I am looking for the recorded concentration at 24 hr of the following compound: CC(C)(O)COc1ccc(F)c(-c2ccnc(N3CCC(C(=O)N4N=CC[C@H]4c4cc(F)cc(F)c4)CC3)c2)c1 (racemic) [Example 42]
Data returned: 32.9

---

- MEASUREMENT_PROTOCOL: Beagle PK (pharmacokinetics)
- Format: in vivo, beagle dogs
- STUDY_CONDITIONS: whole blood; Beagle dog, IV 1 mg/kg; read-out: Cl—obs
Each record here notes measured clearance.
Hi! Could you send only the number? It should be in mL/min/kg, unit omitted.

Data request: Dear colleague, I am looking for the recorded clearance of the following molecule: CC(C)(O)COc1ccc(F)c(-c2ccnc(N3CCC(C(=O)N4N=CC[C@H]4c4cc(F)cc(F)c4)CC3)c2)c1 (racemic)
Data returned: 4.97

Okay, now this molecule:
Data request: Dear colleague, I am looking for the recorded clearance of the following molecule: O=C(C1CCN(c2cc(-c3cc(OCCCO)ccc3F)ccn2)CC1)N1N=CCC1c1cc(F)cc(F)c1 (racemic)
Data returned: 31.4

---

Each record here notes measured IC50.
- Test system: L929 cells
- MEASUREMENT_PROTOCOL: Inhibition of cell necrosis (CCK8 method), L929 cells
- Type: cell-based, mouse
- STUDY_CONDITIONS: Mus musculus, L929, L929, Murine TNF-α/Z-VAD-FMK, 4-8 hours, CCK8

Study these solved cases before continuing.
Data request: Dear colleague, I am looking for the recorded IC50 of the following compound: O=C(C1CCN(c2cc(-c3cc(OCC4(O)CCC4)ccc3F)ccn2)CC1)N1N=CCC1c1cc(F)cc(F)c1 (stereo not shown) [Example 46]
Data returned: 0.01 to 0.05 µM

Data request: Dear colleague, I am looking for the recorded IC50 of the following compound: Cc1ccc(OCC2CCOCC2)cc1-c1ccnc(N2CCC(C(=O)N3N=CCC3c3cc(F)cc(F)c3)CC2)c1 (stereo not shown) [Example 33]
Data returned: 0.01 to 0.05 µM

Data request: Dear colleague, I am looking for the recorded IC50 of the following compound: CC(C)(O)CCCCOc1ccc(F)c(-c2ccnc(N3CCC(C(=O)N4N=CCC4c4cc(F)cc(F)c4)CC3)c2)c1 (stereo not shown) [Example 26]
Data returned: 0.01 to 0.05 µM

Data request: Dear colleague, I am looking for the recorded IC50 of the following compound: COCCCOc1ccc(C)c(-c2ccnc(N3CCC(C(=O)N4N=CCC4c4cc(F)cc(F)c4)CC3)c2)c1 (stereo not shown) [Example 5]
Data returned: 0.05 to 0.1 µM

Data request: Dear colleague, I am looking for the recorded IC50 of the following compound: COCCOc1ccc(Cl)c(-c2ccnc(N3CCC(C(=O)N4N=CCC4c4cc(F)cc(F)c4)CC3)c2)c1 (stereo not shown) [Example 16]
Data returned: 0.05 to 0.1 µM

Further cases:
Data request: Dear colleague, I am looking for the recorded IC50 of the following compound: CC(C)(O)CCOc1ccc(F)c(-c2ccnc(N3CCC(C(=O)N4N=CC[C@H]4c4cc(F)cc(F)c4)CC3)c2)c1 (racemic) [Example 41]
Data returned: 0.01 to 0.05 µM

Data request: Dear colleague, I am looking for the recorded IC50 of the following compound: O=C(C1CCN(c2cc(-c3cccc(OCC4CCOCC4)c3)ccn2)CC1)N1N=CCC1c1cc(F)cc(F)c1 (stereo not shown) [Example 14]
Data returned: 0.01 to 0.05 µM

---

- MEASUREMENT_PROTOCOL: Beagle PK (pharmacokinetics)
- Type: in vivo, beagle dogs
- STUDY_CONDITIONS: whole blood; Beagle dog, IV 1 mg/kg, 0 hr; read-out: Blood drug concentration
Each record here notes measured concentration at 0 hr.
Hi! Could you send only the number? It should be in ng/mL, unit omitted.

Data request: Dear colleague, I am looking for the recorded concentration at 0 hr of the following compound: O=C(C1CCN(c2cc(-c3cc(OCCCO)ccc3F)ccn2)CC1)N1N=CCC1c1cc(F)cc(F)c1 (racemic) [Example 18]
Data returned: 0

Okay, now this compound:
Data request: Dear colleague, I am looking for the recorded concentration at 0 hr of the following compound: CC(C)(O)COc1ccc(F)c(-c2ccnc(N3CCC(C(=O)N4N=CC[C@H]4c4cc(F)cc(F)c4)CC3)c2)c1 (racemic) [Example 42]
Data returned: 0
